read-out: Urokinase-type plasminogen activator receptor (uPAR), PLAUR (gene 5329); experiment: BSK_4H_uPAR: BioMAP Diversity Plus: 4H Assay for Urokinase-type plasminogen activator receptor (uPAR) Biomarker Activity (AID 2283030); details: primary human endothelial cells (HUVEC); actives raise or lower the signal
The source made the active and inactive calls. The calls were made as follows: active = hit-call score of the fitted dose curve at least 0.9, where 1 is the maximum; inactive = score below 0.9.
Possible outcomes: True (active), False (inactive)

{"columns": ["Compound", "Assigned Category"],
 "data": [
  ["CC(=O)NC1(c2cccc(F)c2)CCN(CC[C@@]2(c3ccc(Cl)c(Cl)c3)CN(c3ccccc3)C(=O)CO2)CC1", "True"],
  ["Cc1oc(-c2ccccc2)nc1CCOc1ccc(C[C@H](Nc2ccccc2C(=O)c2ccccc2)C(=O)O)cc1", "True"],
  ["CCCCCCCCOC(=O)CCCCCCCCC(=O)OCCCCCCCC", "False"],
  ["Cc1cc(CCN2CCN(c3nsc4ccccc34)CC2)cc2c1NC(=O)CC2(C)C", "True"],
  ["C[C@@H]1C[C@H]2[C@@H]3CCC4=CC(=O)C=C[C@]4(C)[C@@]3(F)[C@@H](O)C[C@]2(C)[C@@]1(O)C(=O)COP(=O)(O)O", "False"],
  ["O=C(O)Cc1cc(I)c(Oc2cc(I)c(O)c(I)c2)c(I)c1", "True"],
  ["COc1ccc([N+](=O)[O-])cc1N", "False"],
  ["OC1CCCCC1", "False"],
  ["CCc1ccc(CCOc2ccc(CC3SC(=O)NC3=O)cc2)nc1 (stereo unspecified)", "False"],
  ["Oc1cc2ccccc2c2ccccc12", "True"],
  ["CC(C)(C)CC(C)(C)c1ccc(O)c(-n2nc3ccccc3n2)c1", "False"]
]}

----------
System: DIO3 (gene 1735)
Assay: CCTE_GLTED_hDIO3: CCTE's human Deiodinase 3 (DIO3) Inhibition Assay, Great Lakes Toxicology and Ecology Division (GLTED) Lab (AID 2284055)
Experimental: CCTE_GLTED_hDIO3 is a cell-free, single-readout assay designed to test the inhibitory activity of chemicals toward human iodothyronine Deiodinase type 3 (DIO3) enzyme. […] Free iodide is measured in a second step using the Sandell-Kolthoff method.CCTE_GLTED_hDIO3 is the assay component measured from the CCTE_GLTED_hDIO3 assay. […] This assay endpoint, CCTE_GLTED_hDIO3, was analyzed in the positive analysis fitting direction relative to DMSO as the negative control and baseline of activity. […]
Calls of active or inactive are those of the source. How the source made its calls: active means hit-call score of the fitted dose curve at least 0.9, where 1 is the maximum; inconclusive means response in the unintended direction; inactive means score below 0.9.
Possible outcomes: active, inactive

{"columns": ["Smi", "Assigned Category"],
 "data": [
  ["CC(C)(C)c1ccc(O)c(C(C)(C)C)c1", "active"],
  ["CCC(=C(c1ccc(O)cc1)c1ccc(OCCN(C)C)cc1)c1ccccc1", "active"],
  ["ClC1=C(Cl)C(Cl)(Cl)C(Cl)=C1Cl", "active"],
  ["CC1=C(/C=C/C(C)=C/C=C/C(C)=C/C(=O)O)C(C)(C)CCC1", "active"],
  ["CN1CCN(c2ccccc2/C=C2\\SCCN(c3ccc(Cl)c(Cl)c3)C2=O)CC1", "inactive"],
  ["NC(=O)N(O)[C@@H]1C=C[C@H](Oc2cccc(Oc3ccc(F)cc3)c2)C1", "active"],
  ["CC(=O)NC1(c2cccc(F)c2)CCN(CC[C@@]2(c3ccc(Cl)c(Cl)c3)CN(c3ccccc3)C(=O)CO2)CC1", "inactive"],
  ["Cc1oc(-c2ccccc2)nc1CCOc1ccc(C[C@H](Nc2ccccc2C(=O)c2ccccc2)C(=O)O)cc1", "active"],
  ["c1ccc2cc3c(ccc4ccccc43)cc2c1", "active"]
]}

# credit: PubChem BioAssay (EPA / NIEHS)
